Reported Percent Effect values are given for each entry in this list.
- Test system: Wolbachia pipientis
- assayRemarks: Anti-Wolbachia Cell-Based Screen
- Format: functional
- Design: scale not given: in the data most compounds retested in dose-response had high values
- conditionDescription: 5 µM
Hit rate of the full screen: of about 48,000 compounds, about 13,000 (27%) showed an effect of 50% or more. This is one part of the list.
Write down the numeric answer in % and omit the unit.

Study these solved cases before continuing.
Cc1nc(C)n(CC2CCCN2Cc2ccccn2)n1 (centres undefined)	5.197
Cc1cc(C)n(CC2CCCN2Cc2cccc(C#N)c2)n1 (centres undefined)	-4.614
Cn1ccnc1CN1CCC2(CC1)CN(CC1CC1)C(=O)CO2	-0.08379
O=C(c1cccc(S(=O)(=O)NCCCc2ncc[nH]2)c1)N1CCOCC1	-4.417
O=C(CCC1CCCN(S(=O)(=O)C2CC2)C1)Nc1ccc(Cl)cc1 (centres undefined)	0.5143
O=C1O[C@@H]2CN(CCc3ccccc3)C[C@@H]2N1CCCN1CCOCC1	-3.811

Q. # get_value(readout='Percent Effect', item= Cc1nc(C)n(CC2CCCN2Cc2ncc(C(C)(C)C)o2)n1 (centres undefined) )
A. 109.1

Q. Next molecule up: Cc1ccc(CC2COCCN(Cc3ccccc3)C2)nc1 (centres undefined)
A. 76.14

Q. Now this one: "CC(C)n1ccnc1CN1CCCN(C(=O)c2nccnc2N)CC1"
A. 3.581

Q. Would you mind doing "O=C(Nc1cnn(CC(=O)N2CCCCO2)c1)c1ccsc1" as well?
A. 8.582

Q. Ok, now Cc1cc(C)n(CC2CCCN2Cc2ncc(C(C)(C)C)o2)n1 (centres undefined)
A. 98.37

Q. "CN1CCC/C1=N\S(=O)(=O)c1ccc(NC(=O)c2ccco2)cc1" ?
A. 116.6

Q. Do the same for "COc1ccc(CN2CCOC[C@H](OCc3ccccc3)C2)cc1" please
A. -4.744

Q. Would you mind doing Cc1nc(C)n(CC2CCCN(Cc3nc(C)c(C)o3)C2)n1 (centres undefined) as well?
A. 2.327
